Biological target: T1, human PD-1 (construct not stated) (human, UniProt Q15116 25-167, limits assumed)
T1 construct: also called PD-1 analyte
T1 sequence (Q15116 25-167 limits assumed): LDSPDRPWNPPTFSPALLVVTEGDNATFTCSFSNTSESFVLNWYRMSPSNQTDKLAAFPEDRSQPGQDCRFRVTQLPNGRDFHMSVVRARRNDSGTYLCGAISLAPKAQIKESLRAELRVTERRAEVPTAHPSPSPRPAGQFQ
Experiment: Biacore, antibody captured, PD-1 analyte
Experimental: To further characterize the binding characteristics of the antibodies, 10 hybridoma antibodies were profiled using Biacore (Biacore 3000, GE) to elucidate binding kinetics and calculate equilibrium binding constants. This assay was performed by capture method, using the mouse antibody capture kit (BR-1008-38, GE). After diluting anti-mouse Fc mab to 25 μg/ml in pH 5.0 immobilization buffer, immobilization was conducted with the parameters shown in Table 6 at a flow rate of 5 μl/min. […]
Ka values, listed per item

# Ka of 14A6 murine anti-PD-1 antibody (antibody, V domains shown, Purified hybridoma antibody; also called 14A6-mIgG1) VH: DVQLQESGPGLVKPSQSLSLTCTVTGYSITSDYAWNWIRQFPGNQLEWMAYISYSGYTSYNPSLKSRISITRDTSRNQFFLQLNSVTTEDTATYYCARSLDYDYGTMDYWGQGTSVTVSS VL: QIVLSQSPAILSASPGEKVTMTCRANSSVSSMHWYQQKPGSSPEPWIYAISNLAFGVPARFSGSGSGTSYSLTISRVEAEDAATYFCQQWNSRPPTFGGGTKLEIKR = 3.33e+10 M⁻¹

Memo: 7A4 murine anti-PD-1 antibody (antibody, V domains shown, Purified hybridoma antibody; also called 7A4-mIgG1) VH: QIHLVQSGPELKKPGETVKISCKASGYTFTNFGMNWVKQAPGKGLKWMGWISGYTREPTYAADFKGRFAISLETSASTAYLQINDLKNEDMATYFCARDVFDYWGQGTTLTVSS VL: DIVLTQSPASLAVSLGQRATISCRASESVDNYGYSFMNWFQQKPGQPPKLLIYRASNLESGIPARFSGSGSRTNFTLTINPVEADDVATYFCQQSNADPTFGGGTNLEIKR , reported Ka: 4.06e+10 M⁻¹

More entries:
Ka reading for 5A8 murine anti-PD-1 antibody (antibody, V domains shown, Purified hybridoma antibody; also called 5A8-mIgG1) VH: QVQLQQSGDELVRPGTSVKMSCKAAGYTFTNNWIGWVKQRPGHGLEWIGDFYPGGGYTNYNEKFKGKATLTADTSSSTAYMQLSSLTSEDSAIYYCARGYGTNYWYFDVWGAGTTVTVSS VL: NIVMTQTPKILFISAGDRVTITCKASQSVSNDVAWYQQKPGQSPKLLIYYAFTRYIGVPDRFTGSGYGTDFTFTISTVQAEDLAVYFCQQDYSSPYTFGGGTKLEIKR : 1.7e+10 M⁻¹

The binder listed as 13F1 murine anti-PD-1 antibody (antibody, V domains shown, Purified hybridoma antibody; also called 13F1-mIgG1) VH: DVQLQESGPGLVKPSQSLSLTCTVTGYSITSDYAWNWIRQFPGNQLEWMAYISYSGYTSYNPSLKSRISITRDTSKNQFFLQLNSVTTEDTATYYCARSLDYDYGTMDYWGQGTSVTVSS VL: QIVLSQSPAILSASPGEKVTMTCRANSSVSSMHWYQQKPGSSPEPWIYAISNLAFGVPTRFSGSGSGTSYSLTISRVEAEDAATYFCQQWSSRPPTFGGGTKLEIKR has a reported Ka of 3.6e+10 M⁻¹

Measured Ka, 4C10 murine anti-PD-1 antibody (antibody, V domains shown, Purified hybridoma antibody; also called 4C10-mIgG1) VH: QVQLKQSGPGLVQPSQNLSVTCTVSGFSLTTYGVHWVRQSPGKGLEWLGVIWSGGSTDYNAAFISRLTISKDNARSQVFFKMNSLQVNDTAMYYCAREKSVYGNYVGAMDYWGQGTSVTVSS VL: SIVMTQTPKFLLVSAGDRVTITCKASQSVSDDVAWYQQKPGQSPKLLIYYAFNRYTGVPDRFTGSGYGTDFTFTISTVQSEDLAVYFCQQDYRSPWTFGGGTKLEIKR : 3.01e+10 M⁻¹
